Kindly supply the reported hERG current change (%, negative = inhibition) at 1uM values for the records listed here.
# ASSAYED_SYSTEM: human ether-à-go-go-related gene (hERG) potassium channel (human, UniProt Q12809)
# Sequence (Q12809 whole entry, looked up): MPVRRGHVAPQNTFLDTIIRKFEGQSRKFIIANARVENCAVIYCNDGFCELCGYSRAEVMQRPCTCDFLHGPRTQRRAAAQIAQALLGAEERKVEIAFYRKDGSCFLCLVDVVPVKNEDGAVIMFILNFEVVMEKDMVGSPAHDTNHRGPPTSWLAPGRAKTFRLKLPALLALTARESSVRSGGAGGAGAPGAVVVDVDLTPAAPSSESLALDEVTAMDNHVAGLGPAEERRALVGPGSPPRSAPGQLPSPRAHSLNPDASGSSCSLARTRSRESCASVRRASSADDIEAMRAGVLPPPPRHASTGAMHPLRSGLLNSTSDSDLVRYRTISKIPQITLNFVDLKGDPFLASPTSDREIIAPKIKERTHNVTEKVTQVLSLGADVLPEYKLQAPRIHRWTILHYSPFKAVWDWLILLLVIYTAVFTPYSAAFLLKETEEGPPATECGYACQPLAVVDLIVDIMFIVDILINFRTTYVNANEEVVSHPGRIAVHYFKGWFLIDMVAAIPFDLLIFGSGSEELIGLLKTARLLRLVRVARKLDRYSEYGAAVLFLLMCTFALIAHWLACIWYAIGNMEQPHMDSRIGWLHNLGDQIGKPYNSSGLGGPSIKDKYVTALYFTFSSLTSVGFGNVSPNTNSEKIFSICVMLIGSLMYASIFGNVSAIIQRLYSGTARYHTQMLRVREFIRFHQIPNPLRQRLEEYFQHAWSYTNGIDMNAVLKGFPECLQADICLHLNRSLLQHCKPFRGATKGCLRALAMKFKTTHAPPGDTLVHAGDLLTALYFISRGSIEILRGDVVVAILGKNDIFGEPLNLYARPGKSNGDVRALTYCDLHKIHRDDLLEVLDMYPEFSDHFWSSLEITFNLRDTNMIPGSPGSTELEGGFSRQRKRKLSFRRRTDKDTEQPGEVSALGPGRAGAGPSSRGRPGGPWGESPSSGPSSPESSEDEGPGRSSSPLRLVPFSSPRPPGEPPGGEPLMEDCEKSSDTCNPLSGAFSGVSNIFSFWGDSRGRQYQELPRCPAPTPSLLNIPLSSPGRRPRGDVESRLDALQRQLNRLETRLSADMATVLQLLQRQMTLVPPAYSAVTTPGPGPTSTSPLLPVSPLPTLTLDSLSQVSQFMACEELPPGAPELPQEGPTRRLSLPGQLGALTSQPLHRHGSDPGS
# EXPERIMENT_NOTES: primary screen, population patch clamp on CHO cells stably expressing hERG; higher = less effect of the substance
About 2,200 (0.71%) of roughly 310,000 compounds showed an effect of 50% or more. Effects have a minus sign here. The sample holds strong results, similar compounds and a random draw of the others, so the mix is not that of the screen.
Answers are plain numbers, in %.

For the compound O=S(=O)(c1ccc(F)c(F)c1)N1CCN(Cc2ccc3c(c2)OCO3)CC1 , the measured hERG current change (%, negative = inhibition) at 1uM on human ether-à-go-go-related gene (hERG) potassium channel (human, UniProt Q12809) was -9.04

State recorded hERG current change (%, negative = inhibition) at 1uM for all listed compounds.
1. N=c1c(C(=O)NCC2CCCO2)cc2c(=O)n3ccccc3nc2n1Cc1ccc(Cl)cc1 (stereo not drawn)
2. Cn1c(CN2CCCC2)nc2cc(NS(=O)(=O)c3ccc(Cl)cc3)ccc21
3. CCN(CC)CCN1c2ccccc2Sc2ccccc21.O=C(O)C(=O)O
4. N=c1c(C(=O)NCc2ccco2)cc2c(=O)n3ccccc3nc2n1CC1CCCO1 (stereo not drawn)
5. CCN(C(=O)C1CC1)C1CCS(=O)(=O)C1 (stereo not drawn)
6. CCn1c(=O)c(C(=O)CN2CCN(Cc3ccc4c(c3)OCO4)CC2)c(N)n(Cc2ccccc2)c1=O

A.
1. -81.9
2. -31
3. -3.5
4. -84.3
5. 9.67
6. -67.4

Hello, the source for this data is paper PMC4336329, in case you need it.
